Source of measurements: patent US9550803B2

# Measurement Description: in vitro
# Measurement Parameters: human
Values of CC50 strictly less than 20 µM map to T, and values of at least 20 µM map to F.

Threshold test, CC50 < 20 µM: CCCCCCCCCCCCCCCCCCNC(=O)[C@@H](N)Cc1ccc(OP2(=O)CO[C@@H](Cn3cnc4c(N)ncnc43)CO2)cc1 (some centres unmarked) [Compound 8e]
T

Quick check: does CCCCCCCCCCCCCCCCNC(=O)[C@@H](N)Cc1ccc(OP2(=O)CO[C@@H](Cn3cnc4c(N)ncnc43)CO2)cc1 (some centres unmarked) [Compound 8d] have CC50 under 20 µM?
T

Hello, is CC50 of the following molecule strictly smaller than 20 µM? CCCCCCCCCCCCCCCCNC(=O)[C@@H](N)Cc1ccc(OP(=O)(O)COCCn2cnc3c(N)ncnc32)cc1 [Compound 14b]
T

Does the reported CC50 of the following molecule sit strictly below 20 µM? Nc1ccn(C[C@@H](CO)OCP(=O)(O)O)c(=O)n1 [(S)-HPMPC, cidofovir, reference compound]
F

Does the reported CC50 of CCCCCCCCNC(=O)[C@@H](N)Cc1ccc(OP(=O)(O)COCCn2cnc3c(N)ncnc32)cc1 [Compound 14a] stay below 20 µM?
F

# strict comparison: is reported CC50 < 20 µM? input = CCCCCCCCNC(=O)[C@@H](N)Cc1ccc(OP(=O)(O)CO[C@H](C)Cn2cnc3c(N)nc(N)nc32)cc1 [Compound 15a]
F

Consider the molecule CCCCCCCCCCCCCCCCNC(=O)[C@@H](N)Cc1ccc(OP2(=O)CO[C@@H](Cn3ccc(N)nc3=O)CO2)cc1 (some centres unmarked) [Compound 8f] . Is its CC50 strictly less than 20 µM?
T

Would you kindly verify if CC50 of CC(=NNC(N)=S)c1ccccn1 [Compound 3L, 2-Acetylpyridine thiosemicarbazone, reference compound] is strictly less than 20 µM?
T

###

# Test system: vaccinia virus
# Measurement Description: microbe, parasite or virus in culture
# Type: cell-based
# Measurement Parameters: Orthopoxvirus vaccinia, HFF, 72 h, read-out: Antiviral activity, IC50 Vaccinia
Result Type: IC50 (µM)
Field: numeric (µM). Do not append units.

Param readout = IC50; param system = vaccinia virus; param query = Nc1ccn(C[C@@H](CO)OCP(=O)(O)O)c(=O)n1 [(S)-HPMPC, cidofovir, reference compound] ; response: value
10

Please provide the recorded IC50 for CCCCCCCCCCCCCCCCNC(=O)[C@@H](N)Cc1ccc(OP(=O)(O)COCCn2cnc3c(N)ncnc32)cc1 [Compound 14b] , tested on vaccinia virus.
4

Identify the measured IC50 of CCCCCCCCCCCCCCCCNC(=O)[C@@H](N)Cc1ccc(OP(=O)(O)CO[C@H](CO)Cn2cnc3c(N)ncnc32)cc1 for vaccinia virus.
0.003

Which IC50 is reported with vaccinia virus for this entry: CCCCCCCCNC(=O)[C@@H](N)Cc1ccc(OP2(=O)CO[C@@H](Cn3cnc4c(N)ncnc43)CO2)cc1 (stereo partly shown) ?
1.5

Lab request: please report IC50 under test system vaccinia virus for CCCCCCCCNC(=O)[C@@H](N)Cc1ccc(OP(=O)(O)COCCn2cnc3c(N)ncnc32)cc1 [Compound 14a]
50

Notebook entry, vaccinia virus assay: IC50 of CCCCCCCCCCCCCCCCNC(=O)[C@@H](N)Cc1ccc(OP2(=O)CO[C@@H](Cn3cnc4c(N)ncnc43)CO2)cc1 (stereo partly shown) = ?
0.006
